# assayed.target: β-conglutin (Lupinus albus (white lupin)?)
# Sequence: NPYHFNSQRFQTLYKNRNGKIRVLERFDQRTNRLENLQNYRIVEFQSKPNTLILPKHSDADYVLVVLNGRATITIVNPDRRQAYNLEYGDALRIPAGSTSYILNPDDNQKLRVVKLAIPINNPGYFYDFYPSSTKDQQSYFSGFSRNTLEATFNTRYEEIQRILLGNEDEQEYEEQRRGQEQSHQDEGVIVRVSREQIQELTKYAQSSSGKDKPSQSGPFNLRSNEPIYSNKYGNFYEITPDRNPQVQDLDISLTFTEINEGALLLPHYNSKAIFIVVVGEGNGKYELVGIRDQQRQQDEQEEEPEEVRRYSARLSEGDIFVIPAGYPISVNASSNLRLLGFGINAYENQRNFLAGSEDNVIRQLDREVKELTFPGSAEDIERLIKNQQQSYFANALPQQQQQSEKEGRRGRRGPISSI
# test.protocol: MST
# condition.context: dA in nt 24-73 = dAEIn; Binding buffer, salt, pH and temperature not given in the material
pKd: −log10 of the molar value.
reported.metric: pKd

>  <sequence.input>
AGCTCCAGAAGATAAATTACAGGCCAAGATCTCGCGAGTTCCCAACAGGGCAGAGAGATGCCCGACACCAGTG [HB8_T1]

>  <number>
7.38

$$$$

---

# assayed.target: β-conglutin (Lupinus albus (white lupin)?)
# Sequence: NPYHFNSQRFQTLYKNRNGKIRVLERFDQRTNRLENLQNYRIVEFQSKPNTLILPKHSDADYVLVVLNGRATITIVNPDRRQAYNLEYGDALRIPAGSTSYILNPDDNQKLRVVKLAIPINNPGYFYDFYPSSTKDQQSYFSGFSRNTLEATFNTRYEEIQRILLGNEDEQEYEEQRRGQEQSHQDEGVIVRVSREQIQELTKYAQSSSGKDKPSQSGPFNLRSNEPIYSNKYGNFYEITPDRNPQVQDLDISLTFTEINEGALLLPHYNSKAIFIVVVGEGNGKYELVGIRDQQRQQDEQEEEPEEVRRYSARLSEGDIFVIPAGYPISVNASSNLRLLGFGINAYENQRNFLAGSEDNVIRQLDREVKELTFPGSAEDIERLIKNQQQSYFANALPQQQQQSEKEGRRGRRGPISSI
# test.protocol: MST
# condition.context: dAEIn in nt 24-73; 3' 21 nt with natural dA; Binding buffer, salt, pH and temperature not given in the material

>  <sequence.input>
AGCTCCAGAAGATAAATTACAGGCCAAGATCTCGCGAGTTCCCAACAGGGCAGAGAGATGCCCGACACCAGTGCAACTAGGATACTATGACCCC [HB8_M2]

>  <Kd, nM>
44

$$$$

---

# assayed.target: β-conglutin (Lupinus albus (white lupin)?) (UniProt Q53HY0)
# Sequence: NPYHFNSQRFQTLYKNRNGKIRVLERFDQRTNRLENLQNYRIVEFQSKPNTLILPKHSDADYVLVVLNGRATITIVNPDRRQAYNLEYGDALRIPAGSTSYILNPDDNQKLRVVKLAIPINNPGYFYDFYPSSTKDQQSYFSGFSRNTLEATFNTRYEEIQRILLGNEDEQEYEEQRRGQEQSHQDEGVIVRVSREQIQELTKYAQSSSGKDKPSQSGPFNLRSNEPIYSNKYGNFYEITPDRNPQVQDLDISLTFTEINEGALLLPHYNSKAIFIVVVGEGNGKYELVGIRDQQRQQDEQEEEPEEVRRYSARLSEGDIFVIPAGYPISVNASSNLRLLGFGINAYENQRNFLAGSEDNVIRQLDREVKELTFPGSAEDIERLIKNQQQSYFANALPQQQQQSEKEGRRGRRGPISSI
# test.protocol: ELAA
# condition.context: dA outside the 5' primer region (nt 24-94) replaced by indole-modified dA (dAEIn); Binding buffer, salt, pH and temperature not given in the material
reported.metric: Kd (nM)

>  <sequence.input>
AGCTCCAGAAGATAAATTACAGGCCAAGATCTCGCGAGTTCCCAACAGGGCAGAGAGATGCCCGACACCAGTGCAACTAGGATACTATGACCCC [HB8]

>  <number>
0.6

$$$$
